Biological target: human recombinant serotonin (5-Hydroxytryptamine) 5-HT7 receptor (Homo sapiens, UniProt P34969)
Sequence (P34969 whole entry): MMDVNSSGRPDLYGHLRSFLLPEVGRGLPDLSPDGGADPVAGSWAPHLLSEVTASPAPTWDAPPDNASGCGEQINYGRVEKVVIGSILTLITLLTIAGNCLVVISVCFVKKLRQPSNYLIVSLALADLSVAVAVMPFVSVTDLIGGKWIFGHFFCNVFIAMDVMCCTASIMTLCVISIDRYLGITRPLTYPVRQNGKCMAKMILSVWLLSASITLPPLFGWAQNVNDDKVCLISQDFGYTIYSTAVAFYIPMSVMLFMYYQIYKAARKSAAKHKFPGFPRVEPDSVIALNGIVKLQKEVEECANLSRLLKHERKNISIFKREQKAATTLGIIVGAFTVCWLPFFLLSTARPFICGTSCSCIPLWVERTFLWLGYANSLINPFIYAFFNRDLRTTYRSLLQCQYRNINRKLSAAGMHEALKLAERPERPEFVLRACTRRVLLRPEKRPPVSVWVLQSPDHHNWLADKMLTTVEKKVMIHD
Assay: Serotonin 5-HT7 radioligand binding ([3H]LSD)
Details: compound at 0.1 μM; read-out: Inhibition of ligand binding, Serotonin 5-HT7 (percent inhibition of specific binding)
Label TRUE when inhibition at 0.1 µM is at or above 70%; otherwise label FALSE.

>  <Compound>
CCN1CCc2c(c3ccccc3n2/C=C(\C)c2ccncc2)C1

>  <Group>
FALSE

$$$$
>  <Compound>
C/C(=C\n1c2c(c3ccccc31)CN(C)CC2)c1ccncc1

>  <Group>
FALSE

$$$$
>  <Compound>
C/C(=C\n1c2c(c3cccc(F)c31)CN(C)CC2)c1ccc(C)nc1

>  <Group>
FALSE

$$$$
>  <Compound>
C/C(=C\n1c2c(c3cc(C)ccc31)CN(C(C)C)CC2)c1ccncc1

>  <Group>
FALSE

$$$$
>  <Compound>
CC/C(=C/n1c2c(c3cc(Cl)ccc31)CN(C)CC2)c1ccncc1

>  <Group>
TRUE

$$$$
>  <Compound>
CC(=Cn1c2c(c3cc(Cl)ccc31)CN(C)CC2)c1ccc(F)cc1F (stereo in doubt)

>  <Group>
TRUE

$$$$
>  <Compound>
C/C(=C/n1c2c(c3cc(C)ccc31)CN(C)CC2)c1ccncc1

>  <Group>
TRUE

$$$$
>  <Compound>
CCN1CCc2c(c3cc(C)ccc3n2/C=C(\C)c2ccncc2)C1

>  <Group>
FALSE

$$$$
>  <Compound>
Cc1ccc2c(c1)c1c(n2CC(C)(O)c2cnccn2)CCN(C)C1 (centres unmarked)

>  <Group>
FALSE

$$$$
>  <Compound>
C/C(=C\n1c2c(c3cc(F)ccc31)CN(C)CC2)c1ccc(C)nc1

>  <Group>
TRUE

$$$$
>  <Compound>
C/C(=C\n1c2c(c3cccc(F)c31)CN(C)CC2)c1ccncc1

>  <Group>
FALSE

$$$$
>  <Compound>
CC(C)C(O)(Cn1c2c(c3cc(Cl)ccc31)CN(C)CC2)c1ccncc1 (centres unmarked)

>  <Group>
FALSE

$$$$
>  <Compound>
Cc1ccc2c(c1)c1c(n2CC(O)(c2ccncc2)C(C)C)CCN(C)C1 (centres unmarked)

>  <Group>
FALSE

$$$$
>  <Compound>
CN1CCc2c(c3cc(Cl)ccc3n2CC(O)(c2ccc(F)cc2)C2CC2)C1 (centres unmarked)

>  <Group>
TRUE

$$$$
>  <Compound>
C/C(=C\n1c2c(c3cc(F)ccc31)CN(C)CC2)c1ccncc1

>  <Group>
FALSE

$$$$
>  <Compound>
C/C(=C\n1c2c(c3cc(C)ccc31)CN(C)C(C)C2)c1ccncc1 (centres unmarked)

>  <Group>
TRUE

$$$$
>  <Compound>
C/C(=C\n1c2c(c3cc(F)c(F)cc31)CN(C)CC2)c1ccc(C)nc1

>  <Group>
FALSE

$$$$
>  <Compound>
C/C(=C\n1c2c(c3cc(Cl)ccc31)CN(C)C(C)C2)c1ccc(F)cc1 (centres unmarked)

>  <Group>
TRUE

$$$$
>  <Compound>
COc1ccc([C@@](C)(O)Cn2c3c(c4cc(C)ccc42)CN(C)CC3)cc1

>  <Group>
TRUE

$$$$
>  <Compound>
Cc1ccc2c(c1)c1c(n2CC(C)(O)c2ccncn2)CCN(C)C1 (centres unmarked)

>  <Group>
FALSE

$$$$
>  <Compound>
C/C(=C\n1c2c(c3cc(OC(F)(F)F)ccc31)CN(C)CC2)c1ccncc1

>  <Group>
FALSE

$$$$
>  <Compound>
C/C(=C\n1c2c(c3cc(C)ccc31)CN(C)CC2)c1ccc(F)cc1F

>  <Group>
TRUE

$$$$
>  <Compound>
CCc1ccc2c(c1)c1c(n2/C=C(\C)c2ccncc2)CCN(C)C1

>  <Group>
TRUE

$$$$
>  <Compound>
C/C(=C\n1c2c(c3ccccc31)CN(C)CC2)c1ccc(C)nc1

>  <Group>
FALSE

$$$$
>  <Compound>
C/C(=C\n1c2c(c3cccc(Cl)c31)CN(C)CC2)c1ccc(C)nc1

>  <Group>
FALSE

$$$$
>  <Compound>
C/C(=C\n1c2c(c3ccc(F)cc31)CN(C)CC2)c1ccc(C)nc1

>  <Group>
FALSE

$$$$
>  <Compound>
C/C(=C/n1c2c(c3cc(C)ccc31)CN(C)CC2)c1ccc(F)cc1F

>  <Group>
TRUE

$$$$
>  <Compound>
C/C(=C\n1c2c(c3cc(C(C)C)ccc31)CN(C)CC2)c1ccncc1

>  <Group>
TRUE

$$$$
>  <Compound>
Cc1ccc2c(c1)c1c(n2/C=C(\c2ccncc2)C(C)C)CCN(C)C1

>  <Group>
FALSE

$$$$
>  <Compound>
C/C(=C\n1c2c(c3cc(C)ccc31)CN(C)C(C)C2)c1ccc(C)nc1 (centres unmarked)

>  <Group>
TRUE

$$$$
>  <Compound>
C/C(=C\n1c2c(c3cc(Cl)ccc31)CN(C)CC2)c1ccc(F)cc1

>  <Group>
TRUE

$$$$
>  <Compound>
C/C(=C/n1c2c(c3cc(Cl)ccc31)CN(C)CC2)c1ccc(Cl)c(Cl)c1

>  <Group>
TRUE

$$$$
>  <Compound>
CC(C)/C(=C/n1c2c(c3cc(Cl)ccc31)CN(C)CC2)c1ccncc1

>  <Group>
FALSE

$$$$
